test system: ileal fluid dependant organism (IFDO); assay type: cell-based
parameter: Log10 Reduction of Colonies
# print the numeric value only

Task item: What value of Log10 Reduction of Colonies has been recorded for this entry: Cc1cccc(O)c1C [2,3-Dimethylphenol]
Reply: 4.1

Task item: Please answer likewise for Cc1ccc(O)cc1 [p-Cresol]
Reply: 3.7

Task item: Please answer likewise for Cc1cc(O)ccc1Cl [p-Chloro-m-cresol]
Reply: 4.3

Task item: Please answer likewise for Oc1cc(Cl)c(Cl)cc1Cl [2,4,5-Trichlorophenol]
Reply: 4.9

Task item: Please answer likewise for Oc1ccccc1 [Phenol]
Reply: 3.6

Task item: Please answer likewise for Oc1ccccc1-c1ccccc1 [o-Phenylphenol]
Reply: 4.8

Task item: Please answer likewise for Oc1ccc(Cl)cc1Cc1cc(Cl)ccc1O [2,2-Methylenebis(4-chlorophenol)]
Reply: 3.8

Task item: Please answer likewise for Cc1ccc(C(C)C)c(O)c1 [Thymol]
Reply: 3.2

Task item: Please answer likewise for Oc1c(Cl)cc(Cl)c(Cl)c1Cc1c(O)c(Cl)cc(Cl)c1Cl [Hexachlorophene]
Reply: 3.6

Task item: Please answer likewise for Oc1cc(Cl)ccc1Oc1ccc(Cl)cc1Cl [Triclosan]
Reply: 2.7

Task item: Please answer likewise for Oc1ccc(Cl)cc1Cc1ccccc1 [o-Benzyl-p-chlorophenol]
Reply: 4.7
